# target.of.assay: Mu-type opioid receptor (Homo sapiens) (UniProt P35372)
# Sequence (P35372 whole entry): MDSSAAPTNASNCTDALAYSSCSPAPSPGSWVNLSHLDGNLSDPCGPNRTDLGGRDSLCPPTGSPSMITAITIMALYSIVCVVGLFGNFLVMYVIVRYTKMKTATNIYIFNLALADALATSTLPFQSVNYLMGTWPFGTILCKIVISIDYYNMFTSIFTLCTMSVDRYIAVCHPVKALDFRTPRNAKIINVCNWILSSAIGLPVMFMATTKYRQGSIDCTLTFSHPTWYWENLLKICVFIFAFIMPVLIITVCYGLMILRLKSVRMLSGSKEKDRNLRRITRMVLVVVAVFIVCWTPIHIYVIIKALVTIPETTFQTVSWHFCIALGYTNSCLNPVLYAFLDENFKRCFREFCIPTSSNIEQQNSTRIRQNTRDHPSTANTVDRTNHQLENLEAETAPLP
# protocol.text: Agonist activity at MOR (unknown origin) assessed as cAMP accumulation at 0.5 nM relative to control
# Format: functional
Entries and their measured Activity follow.
experimental.readout: Activity (%)

[
  {
    "compound": "COc1ccc(CN/C(=N\\C#N)NC[C@H](Cc2ccccc2)N(C)C)cc1",
    "target.of.assay": "Mu-type opioid receptor (Homo sapiens) (UniProt P35372)",
    "experimental.readout": "Activity",
    "value": 2.9
  },
  {
    "compound": "CC(Cc1cc[nH]n1)N/C(=N\\C#N)NC[C@H](Cc1ccccc1)N(C)C (stereo not given in full)",
    "target.of.assay": "Mu-type opioid receptor (Homo sapiens) (UniProt P35372)",
    "experimental.readout": "Activity",
    "value": -2.5
  },
  {
    "compound": "COc1cccc(CCN/C(=N\\C#N)NC[C@H](Cc2ccccc2)N(C)C)c1",
    "target.of.assay": "Mu-type opioid receptor (Homo sapiens) (UniProt P35372)",
    "experimental.readout": "Activity",
    "value": 3.3
  },
  {
    "compound": "CC(Cc1c[nH]cn1)N/C(=N\\C#N)NC[C@H](Cc1ccccc1)N(C)C (stereo not given in full)",
    "target.of.assay": "Mu-type opioid receptor (Homo sapiens) (UniProt P35372)",
    "experimental.readout": "Activity",
    "value": -14.4
  },
  {
    "compound": "CC(Cc1ccco1)N/C(=N\\C#N)NC[C@H](Cc1ccccc1)N(C)C (stereo not given in full)",
    "target.of.assay": "Mu-type opioid receptor (Homo sapiens) (UniProt P35372)",
    "experimental.readout": "Activity",
    "value": 9.5
  },
  {
    "compound": "COc1ccc2cc(CC(C)N/C(=N\\C#N)NC[C@H](Cc3ccccc3)N(C)C)ccc2c1 (stereo not given in full)",
    "target.of.assay": "Mu-type opioid receptor (Homo sapiens) (UniProt P35372)",
    "experimental.readout": "Activity",
    "value": 15.2
  },
  {
    "compound": "CN(C)[C@H](CN/C(=N/C#N)Nc1ccccc1)Cc1ccccc1",
    "target.of.assay": "Mu-type opioid receptor (Homo sapiens) (UniProt P35372)",
    "experimental.readout": "Activity",
    "value": 2.1
  },
  {
    "compound": "CC(Cc1ccc[nH]1)N/C(=N\\C#N)NC[C@H](Cc1ccccc1)N(C)C (stereo not given in full)",
    "target.of.assay": "Mu-type opioid receptor (Homo sapiens) (UniProt P35372)",
    "experimental.readout": "Activity",
    "value": 5.8
  },
  {
    "compound": "COc1ccccc1N/C(=N\\C#N)NC[C@H](Cc1ccccc1)N(C)C",
    "target.of.assay": "Mu-type opioid receptor (Homo sapiens) (UniProt P35372)",
    "experimental.readout": "Activity",
    "value": 9.5
  },
  {
    "compound": "CN(C)[C@H](CN/C(=N/C#N)NCCc1ccccc1)Cc1ccc(O)cc1",
    "target.of.assay": "Mu-type opioid receptor (Homo sapiens) (UniProt P35372)",
    "experimental.readout": "Activity",
    "value": 8.6
  }
]
